- protocolText: Inhibition of very long chain fatty acid elongase in Allium ampeloprasum microsome using C18:0 as substrate and [14C]-malonate after 10 to 20 min by liquid scintillation counting
- Type: microsomes
- conditionSummary: read-out: I50
reportedMetric: pIC50
Answers are plain numbers, as −log10 of the molar value.

| molecule | pIC50 |
| --- | --- |
| CCC1(C[C@]2(c3cccc(Cl)c3)CO2)C(=O)c2ccccc2C1=O [(S)-INDANOFAN] | 7.77 |

Next molecule, please.
Task: Looking for the measured pIC50 of CCC1(CC2(c3cccc(Cl)c3)CO2)C(=O)c2ccccc2C1=O (stereo not drawn) [(RS)-INDANOFAN] , can you help?
Output: 7.52
